I'd appreciate it if you could supply logPTLC (experimental lipophilicity) values for the items below.
- Method notes: Experimental lipophilicity by RP-TLC (RM0, logPTLC, hydrophobic index)
- Experimental parameters: from RM0 by calibration curve Equation (4)

Answered examples (4):
Compound	logPTLC (experimental lipophilicity)
C=C(C)[C@@H]1CC[C@]2(COC(=O)c3cn(CCCOC4=C(Cl)C(=O)c5cccnc5C4=O)nn3)CC[C@]3(C)C(CCC4[C@@]5(C)CC[C@H](OC(C)=O)C(C)(C)C5CC[C@]43C)C12 (some centres unmarked)	5.08
C=C(C)[C@@H]1CC[C@]2(COC(=O)c3cn(CCCOC4=C(Cl)C(=O)c5ccccc5C4=O)nn3)CC[C@]3(C)C(CCC4[C@@]5(C)CC[C@H](OC(C)=O)C(C)(C)C5CC[C@]43C)C12 (some centres unmarked)	5.35
C=C(C)[C@@H]1CC[C@]2(COC(=O)c3cn(CCCOC4=C(Cl)C(=O)c5ccccc5C4=O)nn3)CC[C@]3(C)C(CCC4[C@@]5(C)CC[C@H](O)C(C)(C)C5CC[C@]43C)C12 (some centres unmarked)	4.87
C=C(C)[C@@H]1CC[C@]2(COC(=O)c3cn(CCCOC4=C(Cl)C(=O)c5ccc(C)nc5C4=O)nn3)CC[C@]3(C)C(CCC4[C@@]5(C)CC[C@H](OC(=O)CC)C(C)(C)C5CC[C@]43C)C12 (some centres unmarked)	5.56

Could you tell me logPTLC (experimental lipophilicity) for each of these compounds? They are listed below.
1. C=C(C)[C@@H]1CC[C@]2(COC(=O)c3cn(CCCOC4=C(Cl)C(=O)c5ccc(C)nc5C4=O)nn3)CC[C@]3(C)C(CCC4[C@@]5(C)CC[C@H](OC(C)=O)C(C)(C)C5CC[C@]43C)C12 (some centres unmarked)
2. Clc1ccc(C(c2ccc(Cl)cc2)C(Cl)(Cl)Cl)cc1 [DDT, dichlorodiphenyltrichloroethane, reference compound]
3. C=C(C)[C@@H]1CC[C@]2(COC(=O)c3cn(CCCOC4=C(Cl)C(=O)c5ccncc5C4=O)nn3)CC[C@]3(C)C(CCC4[C@@]5(C)CC[C@H](OC(=O)CC)C(C)(C)C5CC[C@]43C)C12 (some centres unmarked)
4. C=C(C)[C@@H]1CC[C@]2(COC(=O)c3cn(CCCOC4=C(Cl)C(=O)c5ccccc5C4=O)nn3)CC[C@]3(C)C(CCC4[C@@]5(C)CCC(=O)C(C)(C)C5CC[C@]43C)C12 (some centres unmarked)

[5.26, 6.17, 5.39, 4.93]
